// provenance: ChEMBL document CHEMBL1201862

- Tested on: HOP-92
- procedureDetails: NCI tumour cell line growth inhibition, 48 h
Activity calls are given as the source filed them. Rule as the data show it: active = GI50 up to about 1.1 µM and inactive = higher.
reportedProperty: GI50

// fetch GI50 given entry CC1=C(C(=O)Nc2cccc(C(F)(F)F)c2)C(c2ccccc2F)C(C(=O)Nc2cccc(C(F)(F)F)c2)=C(C)N1
2.8 µM (inactive)

Provide one value: measured GI50 of COc1cc(COC(=O)N[C@H](C(=O)O)C(C)(C)C)c([N+](=O)[O-])cc1OC
> 100 µM (inactive)

Give the measured GI50 for COc1ccc2c(C)cc(N/N=C/c3ccc(C)s3)nc2c1
19.5 µM (inactive)

Identify GI50 associated with the compound CC(C)c1cc(C(C)C)c(S(=O)(=O)N=[N+]=[N-])c(C(C)C)c1
> 100 µM (inactive)

Quote GI50 reported for C/C(=N/NC(=S)N(C)CCc1ccccn1)c1cnccn1 please.
3.35 µM (inactive)

State its GI50 for this compound: Cc1[nH]nc(C(=O)N/N=C/c2ccccc2Cl)c1/N=N\N(C)C
> 23.9 µM (inactive)

----------
- Tested on: COLO 205
- procedureDetails: NCI tumour cell line growth inhibition, 48 h
Counter-ions that a name gives are not always drawn. Active and inactive are the calls of the source. Rule as the data show it: active = GI50 up to about 1.1 µM and inactive = higher. Non-standard residues stand in square brackets, D forms with d. Square brackets hold non-standard residues; d marks the D form. Residues, ends and D or L forms follow the SMILES beside them. Peptide text beside a SMILES is read from it. * marks the point of attachment. *: point of attachment. X26 = COC1=CC(=O)N(C(=O)[C@@H](O*)C(C)C)[C@H]1Cc1ccccc1; NMeF = CN[CH](Cc1ccccc1)C(=O)O; NMeV = CN[CH](C(=O)O)C(C)C; Hexanoyl = CCCCCC(=O)*; Boc = CC(C)(C)OC(=O)*
Respond only with the outcome that fits, drawn from active, inactive

Hey, what did the test say about Clc1ccc(COc2ccccc2/C=N/c2c(-c3ccco3)nc3ccccn23)c(Cl)c1 ?
inactive

Short answer needed: outcome of this test for CCCCN/N=N/c1cn(C2OC(CO)C(O)C2O)c(=O)[nH]c1=O (stereo not drawn) ?
inactive

# fetch the recorded call for O=C(/C=C/c1ccccc1)/C=C/c1ccccc1O here
inactive

Status in this test for COc1ccc(N)c(C(=O)CCNC(C)=O)c1 ?
inactive

Which outcome was entered for the compound O=C(C=P(c1ccccc1)(c1ccccc1)c1ccccc1)c1ccc(-c2ccc(F)cc2F)cc1 in this test?
inactive

Which result was noted for this compound in the test: C=CCOC(=O)N1[C@H]2C#C/C=C\C#C[C@]3(O)C(=O)C[C@H](C)[C@]24O[C@]43C2=CC(=O)C=CC21OC (stereo partly drawn)
inactive

Returns: the outcome recorded for c1ccc(CCCCNCc2cc(CNCCCCc3ccccc3)cc(CNCCCCc3ccccc3)c2)cc1 in this assay.
active

Which outcome was assigned to CN(C)CCC=C1c2ccccc2C=Cc2ccccc21 [CYCLOBENZAPRINE HYDROCHLORIDE] in this test?
inactive

I'd appreciate the recorded outcome for CCN1C(=O)C(=C/C=C/C=C2/N(C)c3ccccc3C2(C)C)C(=O)N(CC)C1=S from this test.
inactive

Recorded call for N#Cc1c(N2CCCC2)nsc1NCc1ccccc1 ?
inactive

Each compound tested received a call. Report the one for CCOC(=O)c1cc(=O)c2cccc3c2n1CCS3 .
inactive

Look up the recorded call for O=C(CC(=O)N1N=C(n2ccc3ccccc32)CC1c1ccccc1)Nc1ccccc1Cl (stereo not drawn) in this test.
inactive

Please share the test call associated with C/C(=N\NC(=O)c1ccncc1)c1cccc(C(F)(F)F)c1 .
inactive

GET /call?item= CC(C)OP(=O)(OC(C)C)C(C(C)C)N(C)/C(N)=N\C1=NC(C(F)(F)F)(C(F)(F)F)N=C(C(C(F)(F)F)C(F)(F)F)O1 (stereo not drawn) returns the recorded outcome of this test.
inactive

Hey, what did the test say about CCC(O)c1ccc(/N=C/c2ccccc2O)cc1 (stereo not drawn) ?
inactive

Please state the recorded outcome for this compound: N#CC12C(=O)N3C(=NC(c4ccccc4)NC3c3ccccc3)C1(C#N)C(c1ccccc1)NC1=C2CCCC1 (stereo not drawn)
inactive

Hi team, can someone confirm the assay call for CC(C)(CO)CNc1nc(N)nc(Cl)c1N ?
inactive

Can you look up the reported call for COc1c(C(=O)/C(=N/Nc2ccccc2)C(C)=O)c(O)c(OC)c2occc12 for me?
inactive

Please indicate how the test categorized CC1=C(/C=C/Cl)CC(Cl)C(C)(Cl)C1 (stereo not drawn) .
inactive

Which result was noted for this compound in the test: Oc1ncnc2c1CCCN2
inactive

Call for entry NC(CC(=O)Nc1cc(C(F)(F)F)ccc1Cl)=NO :
inactive

Any idea what this test logged for C=CN1CCN(c2ccccc2)P1(=O)Oc1ccccc1 (stereo not drawn) ?
inactive

What call does the record list for C=C(Br)CNC(=O)Nc1ccc(Cl)c(Cl)c1 ?
inactive

Hi, sorry to bother you, what did the test record for Cc1cnc2sn(-c3ccc(Oc4ccccc4)cc3)c(=O)c2c1 ?
inactive

What outcome does the record of this test show for CC(C)(C)C1(O)C=C(O)C(=O)N1NC(=O)c1ccccc1Nc1ccccc1 (stereo not drawn) ?
inactive

Record lookup: outcome of this test for C=C1C(=O)OC2C1C(OC(=O)/C(C)=C/C)CC1(C)C(=O)CCC(=C)C21 (stereo not drawn) ?
inactive

Each compound tested received a call. Report the one for CNC(=O)OCc1nc(SC)n(C)c1CO .
inactive

State the result this test recorded for CC(=O)O[C@H]1CC[C@@]2(C)C(=CC[C@H]3[C@@H]4CC[C@H](c5cc(C(F)(F)F)n(C(C)=O)n5)[C@@]4(C)CC[C@@H]32)C1 .
inactive

# lookup: test call for CCOC(=O)NC(C(=O)OCC)(N1CCN(c2cc3c(cc2F)c(=O)c(C(=O)O)cn3CC)CC1)C(F)(F)F (stereo not drawn)
inactive

Could you check what this test reported for Cc1cnc2[nH]c(-c3ccccc3)cc(=O)c2c1 ?
active

Assay result, entry COc1ccc(C2c3cc4c(cc3OC(Nc3ccccc3)C2C)OCO4)cc1 (stereo not drawn) — outcome?
inactive

Check the results log: what was the call for Cc1cc(S(=O)(=O)[N-]/C(=N/S(=O)(=O)c2ccc(Cl)cc2)[n+]2ccc(N(C)C)cc2)c(SCC(=O)O)cc1Cl ?
inactive

Hi, do you know how CN(C)c1cc[n+](-c2nc([N-]C(=O)C(F)(F)F)nc3c2ncn3C2CC(O)C(CO)O2)cc1 (stereo not drawn) came out in this test?
inactive

Field: outcome | Entry: CC(C)(C)c1cc(C2NCCO2)cc(C(C)(C)C)c1O (stereo not drawn)
inactive

Each compound tested received a call. Report the one for CCCCCC(=O)N[C@H](C(=O)N[C@H](C(=O)N(C)[C@H](C(=O)N1CCC[C@H]1C(=O)N1CCC[C@H]1C(=O)O[C@H](C(=O)N1C(=O)C=C(OC)[C@@H]1Cc1ccccc1)C(C)C)C(C)C)C(C)C)C(C)C (Hexanoyl-VV[NMeV]PP-X26) .
inactive

Call for entry CSc1nc(NC2CC2)c2c(n1)Sc1nc3ccccc3n1N=C2 :
inactive

Given CC(C)C(NC(=O)OC(C)(C)C)C(=O)N(C)C(Cc1ccccc1)C(=O)N(C)C(C(=O)O)C(C)C (stereo not drawn) (Boc-Val-[NMeF]-[NMeV]-OH; configuration not given here) , state the outcome it received in this test.
inactive

Could you kindly confirm the outcome this assay logged for Cc1nnc2n1N=C(c1ccccc1)/C(=C/c1ccc(-c3ccc(Cl)cc3)o1)S2 ?
inactive

----------
Field: GI50. Provide a value for each of the compounds that follow.
- System: BT-549
- procedureDetails: NCI tumour cell line growth inhibition, 48 h
Calls of active or inactive are those of the source. No stated cut-off is given here; in the data, active = GI50 up to about 1.1 µM and inactive = higher.

Give me measured GI50, please, for this compound: O=C(/C=C/c1ccsc1)c1ccco1
18.5 µM (inactive)

Recall and state the measured GI50 for Cc1c2cc[n+]([O-])cc2c(C)c2c1[nH]c1ccccc12 .
9.64 µM (inactive)

Fill in GI50 for record COc1ccc2nc3n(c2c1)C(c1c(F)cccc1Cl)SC3 (stereo not given)
> 100 µM (inactive)

Answer with the recorded GI50 of CC(=O)OCC1OC(OC2CC3C(C)(C)C(O)CC[C@]3(C)C3CCC45CC4(CCC5[C@@H](C)CC(O)C(O)C(C)(C)O)[C@]23C)C(O)C(O)C1O (stereo not given in full) only.
> 10 µM (inactive)

Return GI50 for the following compound: N#Cc1c(N2CCCC2)nsc1NCc1ccccc1
> 100 µM (inactive)

Answer with the recorded GI50 for the compound listed here: CC(NC(=O)c1ccc(OP(=O)(OCc2ccc([N+](=O)[O-])o2)N(C)CCCCCl)cc1)c1ccc(OCC2CCCCC2)c(C(N)=O)c1 (stereo not given)
2.36 µM (inactive)

Please report the measured GI50 for C=CN1CCN(c2ccccc2)P1(=O)Oc1ccccc1 (stereo not given)
> 100 µM (inactive)

Report GI50 for O=C(NNCc1ccc(Cl)cc1)Nc1cccc2ccccc12
97.1 µM (inactive)

Specify GI50 for CCOC(=O)c1cn2c(n1)sc1c(Cl)c(Cl)ccc12 and stop.
33 µM (inactive)

Provide measured GI50 value, entry: Cc1ccc2nc(C(C)C)c(=O)[nH]c2c1
> 100 µM (inactive)
